Values were extracted from BindingDB's records for doi:10.7270/Q2TX3CTT.

Listed next: entries and their corresponding EC50.
- System: Glycogen synthase kinase-3 beta (Homo sapiens, UniProt P49841)
- Sequence (P49841 whole entry): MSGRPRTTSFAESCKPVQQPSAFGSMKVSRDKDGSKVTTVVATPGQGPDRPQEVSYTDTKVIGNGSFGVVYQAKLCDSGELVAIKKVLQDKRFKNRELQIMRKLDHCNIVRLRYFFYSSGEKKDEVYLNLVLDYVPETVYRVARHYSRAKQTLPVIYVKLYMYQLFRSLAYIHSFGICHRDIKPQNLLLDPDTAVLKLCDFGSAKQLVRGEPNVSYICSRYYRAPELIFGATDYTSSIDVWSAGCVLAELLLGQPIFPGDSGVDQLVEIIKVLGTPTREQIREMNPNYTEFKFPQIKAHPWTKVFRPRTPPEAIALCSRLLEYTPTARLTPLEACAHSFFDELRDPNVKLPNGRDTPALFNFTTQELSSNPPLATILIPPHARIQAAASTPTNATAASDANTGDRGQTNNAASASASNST
- Test summary: concentration-response blocking of human GSK3B – biochemical, luminescence, cell-free homogeneous, retest, dose response (AID 434954)
Property label: EC50

[[record]]
compound = "Cc1nn(-c2ccccc2)c2c1cc1c(=O)n(C)c(=O)nc-1n2-c1ccccc1F [MLS000769580]"
measured = "106 µM"

[[record]]
compound = "COc1ccc(OCCCC(=O)NCc2ccco2)cc1"
measured = "> 300 µM"

[[record]]
compound = "CC(C)=CCc1c(O)cc2c(=O)c3ccc(O)cc3oc2c1O [SMR000470963]"
measured = "> 300 µM"

[[record]]
compound = "CC1(C)CC(CCNC(=O)CCl)(c2ccccc2)CCO1 (stereo unspecified) [MLS000779552]"
measured = "> 300 µM"

[[record]]
compound = "CCOCCOC(=O)c1ccc(-n2cnc(C)n2)nc1 [SMR000337218]"
measured = "> 300 µM"

[[record]]
compound = "CNc1nc(N)c([N+](=O)[O-])c(NCCO)n1"
measured = "67.1 µM"

[[record]]
compound = "Cc1c(NC(=O)CSc2nnc3sc4ccccc4n23)c(=O)n(-c2ccccc2)n1C [MLS000060665]"
measured = "> 300 µM"

[[record]]
compound = "c1ccc2c(c1)oc1c(NCCCn3ccnc3)ncnc12"
measured = "> 300 µM"

[[record]]
compound = "Cc1ccc(C(=O)c2coc3ccc(O)c(Cl)c23)cc1"
measured = "> 300 µM"

[[record]]
compound = "CCc1ccc(C2NC(=S)N=C3CC(C)(C)CC(=O)C32)cc1 (stereo unspecified) [MLS000720309]"
measured = "> 300 µM"

[[record]]
compound = "Fc1cccc(CN=Nc2ncnc3nc[nH]c23)c1"
measured = "11.9 µM"

[[record]]
compound = "O=C(CSc1ccc2nnc(-c3ccc(F)cc3)n2n1)NCc1ccco1"
measured = "39.9 µM"

[[record]]
compound = "N#Cc1c(Cl)nc(-c2ccncc2)nc1-c1ccccc1 [SMR000549420]"
measured = "15.2 µM"

[[record]]
compound = "Cc1ccc2c(c1)COc1c3ccc(C(=O)O)cc3nn1-2"
measured = "8.69 µM"

[[record]]
compound = "Nc1ncnc(N2CCc3ccccc32)c1[N+](=O)[O-] [SMR000323059]"
measured = "14 µM"

[[record]]
compound = "NC(=O)c1ncn([C@@H]2O[C@H](CO)[C@@H](O)[C@H]2O)n1 [Tribavirin]"
measured = "> 300 µM"

[[record]]
compound = "O=C(OCCCN1CCCCC1)c1ccc(O)cc1 [3-piperidin-1-ylpropyl 4-hydroxybenzoate]"
measured = "> 300 µM"

[[record]]
compound = "N#CCCn1cc(CN=O)c(-c2ccc(-c3ccccc3)cc2)n1"
measured = "> 300 µM"

[[record]]
compound = "CCOC(=O)c1nnn(-c2nonc2N)c1CSc1nnc(N)s1 [MLS000624994]"
measured = "> 300 µM"

[[record]]
compound = "O=C(COC(=O)C1CCN(/C=C/C(=O)C(F)(F)F)CC1)Nc1ccccc1 [MLS000390182]"
measured = "> 300 µM"

[[record]]
compound = "CCCCCc1cc(O)c2c(C)cc(=O)oc2c1"
measured = "> 300 µM"

